# targetOrTestSystem: Phosphatidylinositol 4-kinase alpha (Bos taurus) (UniProt O02811)
# Sequence (O02811 whole entry): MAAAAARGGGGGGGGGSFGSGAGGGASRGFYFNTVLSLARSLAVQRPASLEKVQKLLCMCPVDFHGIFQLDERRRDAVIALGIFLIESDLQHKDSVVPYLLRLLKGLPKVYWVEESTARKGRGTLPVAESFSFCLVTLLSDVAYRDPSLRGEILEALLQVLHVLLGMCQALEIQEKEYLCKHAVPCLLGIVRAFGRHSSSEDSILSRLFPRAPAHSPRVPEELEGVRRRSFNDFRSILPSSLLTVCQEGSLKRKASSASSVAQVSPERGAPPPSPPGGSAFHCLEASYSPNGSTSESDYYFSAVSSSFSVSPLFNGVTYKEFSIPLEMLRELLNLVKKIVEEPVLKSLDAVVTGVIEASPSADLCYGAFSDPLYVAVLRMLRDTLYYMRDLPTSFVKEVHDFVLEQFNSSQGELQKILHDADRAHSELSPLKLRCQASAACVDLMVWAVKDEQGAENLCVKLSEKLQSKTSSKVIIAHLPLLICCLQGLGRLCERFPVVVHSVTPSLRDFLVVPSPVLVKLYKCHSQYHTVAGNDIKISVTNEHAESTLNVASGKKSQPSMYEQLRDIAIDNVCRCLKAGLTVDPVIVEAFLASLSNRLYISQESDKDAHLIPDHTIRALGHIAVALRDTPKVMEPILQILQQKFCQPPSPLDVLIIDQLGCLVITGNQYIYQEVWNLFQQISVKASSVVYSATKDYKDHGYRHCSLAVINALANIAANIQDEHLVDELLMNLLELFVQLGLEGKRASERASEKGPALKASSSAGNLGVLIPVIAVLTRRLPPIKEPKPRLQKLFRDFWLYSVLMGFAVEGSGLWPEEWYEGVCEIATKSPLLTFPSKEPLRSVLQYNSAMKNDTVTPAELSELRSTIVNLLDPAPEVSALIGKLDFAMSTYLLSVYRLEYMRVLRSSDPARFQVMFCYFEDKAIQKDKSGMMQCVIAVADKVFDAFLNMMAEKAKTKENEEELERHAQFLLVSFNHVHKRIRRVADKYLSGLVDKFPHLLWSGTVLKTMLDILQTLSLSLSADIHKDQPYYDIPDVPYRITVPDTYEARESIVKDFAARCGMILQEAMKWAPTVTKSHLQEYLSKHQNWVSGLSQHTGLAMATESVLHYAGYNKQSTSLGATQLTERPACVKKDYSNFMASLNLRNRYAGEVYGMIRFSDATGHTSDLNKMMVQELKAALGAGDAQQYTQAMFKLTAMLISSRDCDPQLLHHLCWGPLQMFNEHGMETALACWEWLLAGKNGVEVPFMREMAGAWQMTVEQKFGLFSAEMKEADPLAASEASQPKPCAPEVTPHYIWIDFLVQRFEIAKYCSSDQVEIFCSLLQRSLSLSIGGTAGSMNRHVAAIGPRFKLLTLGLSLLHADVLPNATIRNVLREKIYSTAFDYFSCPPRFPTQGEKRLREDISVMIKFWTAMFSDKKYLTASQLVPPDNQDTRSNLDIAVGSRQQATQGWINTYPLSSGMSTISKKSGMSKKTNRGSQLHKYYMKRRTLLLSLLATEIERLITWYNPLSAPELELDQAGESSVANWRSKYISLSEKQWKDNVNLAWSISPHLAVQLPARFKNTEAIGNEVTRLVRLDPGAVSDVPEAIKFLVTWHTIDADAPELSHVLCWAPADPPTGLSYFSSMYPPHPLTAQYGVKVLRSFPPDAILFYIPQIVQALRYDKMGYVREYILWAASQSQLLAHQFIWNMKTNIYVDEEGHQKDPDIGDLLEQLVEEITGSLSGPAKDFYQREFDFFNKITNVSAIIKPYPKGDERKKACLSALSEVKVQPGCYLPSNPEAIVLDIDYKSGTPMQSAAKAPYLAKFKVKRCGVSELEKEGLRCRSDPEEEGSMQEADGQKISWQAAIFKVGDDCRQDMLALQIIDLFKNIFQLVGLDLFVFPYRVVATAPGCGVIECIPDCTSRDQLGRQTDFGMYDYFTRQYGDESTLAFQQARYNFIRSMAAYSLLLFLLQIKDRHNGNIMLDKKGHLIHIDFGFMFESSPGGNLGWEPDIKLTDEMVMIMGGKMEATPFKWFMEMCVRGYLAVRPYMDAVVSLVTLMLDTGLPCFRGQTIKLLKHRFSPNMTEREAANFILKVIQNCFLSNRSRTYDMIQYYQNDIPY
# methodSummary: Inactivation of the enzyme PI4K230 from bovine brain membranes
# Parameters: concentration or dose not given beside the values
Entries whose Remaining activity is below 80% take 1; entries at or above 80% take -1.

| compound | answerLabel |
| --- | --- |
| CC1(C)OC2C=CC(=O)CC2O1 (centres undefined) | 1 |
| COC(=O)/C=C1\C[C@H](O)C[C@@H](OC(=O)c2ccccc2)[C@@H]1OC(=O)c1ccccc1 | 1 |

Problem: Please let me know if CC(=O)O[C@H]1CC(=O)[C@@H](OC(=O)c2ccccc2)[C@H](N=[N+]=[N-])C1 shows Remaining activity below 80%.
Solution: 1

Problem: Please let me know if COC(=O)/C=C1\C[C@H](O)C[C@@H](N=[N+]=[N-])[C@@H]1OCc1ccccc1 shows Remaining activity below 80%.
Solution: 1

Problem: Please let me know if O=C(O[C@@H]1C(=O)C=CC[C@H]1OC(=O)c1ccccc1)c1ccccc1 shows Remaining activity below 80%.
Solution: 1

Problem: Please let me know if [N-]=[N+]=N[C@@H]1CC=CC(=O)[C@H]1OCc1ccccc1 shows Remaining activity below 80%.
Solution: -1

Problem: Please let me know if [N-]=[N+]=N[C@@H]1C[C@@H](O)CC2(SCCS2)[C@H]1OC(=O)c1ccccc1 shows Remaining activity below 80%.
Solution: -1

Problem: Please let me know if O=C1C[C@H](O)CC=C1OC(=O)c1ccccc1 shows Remaining activity below 80%.
Solution: 1

Problem: Please let me know if CC(=O)O[C@@H]1CC(=O)[C@@H](OC(=O)c2ccccc2)[C@H](OC(=O)c2ccccc2)C1 shows Remaining activity below 80%.
Solution: 1
